B1: HDV Ribozyme (parent)
chain: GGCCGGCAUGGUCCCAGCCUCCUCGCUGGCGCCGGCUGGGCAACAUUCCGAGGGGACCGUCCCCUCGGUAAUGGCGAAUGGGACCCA

variants of: B1; assay: self-cleavage, relative activity (ratio to wild type); higher = more cleavage; co-transcriptional
REPORTED_ENDPOINT: self-cleavage
# print the numeric value only

Q: Report self-cleavage, nothing else, for this variant: "GGCCGGCAUGGUCCCAGCCUCCUCGCUGGCGCGGGCUGGGCAACAGUCCGAGGGGACCGUCCCCUCGGUAAUGGCGAAUGGGACCCA"
Result: 0.208

Q: For "GGCCGGCAUGUUCCCAGCCUCCUCGCUGGCGCCGGCUGGGCAACAUUCCGAGGGGACCGUCCCCUCGGUAAGGGCGAAUGGGACCCA" , write its self-cleavage.
Result: 0.145

Q: Read the entry "GGCCGGCAUGGUCCCAGCCUCCUCGCUGGCGCCUGCUGGGCAACAUUCCGAGGGGACCGACCCCUCGGUAAUGGCGAAUGGGACCCA" and write its reported self-cleavage.
Result: 0.0817

Q: Output self-cleavage of "GGCCGGCAUGGUCCCAGCCUCCUCGCUGGCGCCGGCUGGGCAACAUUCCGAGGAGACCGUCCCCUCGGUAAUGGCGAAUGGGAGCCA"
Result: 0.462

Q: Dear colleague, please send me the reported self-cleavage for "GGCCGGCAUGGUCCCAGCCUUCUCGCUGGCGCCGGCUGGGCAACAUUCCGAGGGGACCGUCCCCUUGGUAAUGGCGAAUGGGACCCA" when you can.
Result: 0.299

Q: # return recorded self-cleavage for input "GGCCGGCAUGGUCCCAGCCUCCUCGCUGGCGCCGGCGGGGCAACAUUCCGAGGGGACCGUCCGCUCGGUAAUGGCGAAUGGGACCCA"
Result: 0.0615

Q: Input "GGCCGGCAUGGUCCCAGCCUCCUCGCUGGCGCCGGCUAGGCAACAUUCCGAGGGGACCGUCCCCACGGUAAUGGCGAAUGGGACCCA" , output reported self-cleavage.
Result: 0.273

Q: # return recorded self-cleavage for entry "GGCCGGCAUGGCCUCAGCCUCCUCGCUGGCGCCGGCUGGGCAACAUUCCGAGGGGACCGUCCCCUCGGUAAUGGCGAAUGGGACCCA"
Result: 0.277

Q: Supply recorded self-cleavage for "GGCCGGCAUGGUCCCAGCCUACUCGCUGGCGCCGGCUGGGCAACAUUCCGAGGGGACCGUCCCCUCGGUAAUGGAGAAUGGGACCCA" here.
Result: 0

Q: Output measured self-cleavage for this item: "GGCCGGCAUGGUCCCAGCGUCCUCGCUGGCGCCGGCUGGGCAACAUUCCGAGGGGACCGUUCCCUCGGUAAUGGCGAAUGGGACCCA"
Result: 0.0707

Q: Supply measured self-cleavage of "GGCCGGCAUGGUCCCUGCCUCCUCGCUGGCGCCGGCUGGGCAACAUUCCGAGGGGACCGUCCCCUCGGUAAUGGCGAAUAGGACCCA" in your reply.
Result: 0.812

Q: Quickly give me recorded self-cleavage for "GGCCGGCAUGGUCCCAGCCUCCUCGCUGGCGCCGGCUGGGUAACAUUCUGAGGGGACCGUCCCCUCGGUAAUGGCGAAUGGGACCCA"
Result: 0.749

Q: Report self-cleavage for "GGCCGGUAUUGUCCCAGCCUCCUCGCUGGCGCCGGCUGGGCAACAUUCCGAGGGGACCGUCCCCUCGGUAAUGGCGAAUGGGACCCA"
Result: 0.374

Q: Give a short answer stating reported self-cleavage for "GGCCGGCAUGGUCCCAGCCUCCUCGCUGGCGCCGGCUGGGCAACAUUCCGAUGGGACCGUCCCCUCGGUAAUGGCUAAUGGGACCCA" .
Result: 1.05

Q: Identify measured self-cleavage corresponding to "GGCCGGCGUGGUCCCAGCCUCCUCGCUGGCGCCGGCUGGGCAACACUCCGAGGGGACCGUCCCCUCGGUAAUGGCGAAUGGGACCCA"
Result: 0.782

Q: Identify self-cleavage associated with the variant "GGCCGGCAUGGUCCCAGCCUGCUCGCUGGCGCCGGCUGGGCAACAUUCCGAGGGGACCGUCCCCUCGGUAAUGGCGAACGGGACCCA"
Result: 0.0244

Q: Dear colleague, please send me the reported self-cleavage for "GGCCGCCAUGGUCCCAGCCUCCUCGCUGGCGCCGGCUGGUCAACAUUCCGAGGGGACCGUCCCCUCGGUAAUGGCGAAUGGGACCCA" when you can.
Result: 0.0536

Q: Return self-cleavage for the following variant: "GGCCGGCAUGGUCCCAGCCUCGUCGCUGGCGCCGGCUGGGCAACAUUCCGAGGGGACCGUCCCCUCGGUGAUGGCGAAUGGGACCCA"
Result: 0.185

Q: Item "GGCCGGCAUGAUCCCAGCCUCCUCGCUGGCGCCGGCUGGGCAACAUUCCGAGGGGACCGUCCCCUCGGUAAUGGCGAAUGGGCCCCA" : provide self-cleavage
Result: 0.0707

Q: Look up and state reported self-cleavage for "GGCCGGCAUGGUCCCAGCCUCCUCGCUGGCGCCGGCUGGGCAACAUUCCGAGGGGACCGUCCACUCGGUAAUGGCGAAUGGGACACA"
Result: 0.618

Q: Answer with reported self-cleavage of "GGCCGGCAUGGCCCCAGCCUCCUCGCUGGCGCCGGCUGGGCGACAUUCCGAGGGGACCGUCCCCUCGGUAAUGGCGAAUGGGACCCA"
Result: 0.0831

Q: Quick one: give measured self-cleavage for "GGCCGGCAUGGUCCCAGCCUCCUCGCUGGCGCCGGCUGGGCAACAUUCCGAGGGGACCGUCCCCUCGUUACUGGCGAAUGGGACCCA"
Result: 0.973

Data provenance is the RNAGym collection of RNA variant scans (doi:10.7554/elife.80360).
